Test: Cell Viability - LYMP2-024 (AID 988);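 also: cells exposed to compound for 24 hr at 37 °C; nearly all actives have a fitted effect of over 60% in size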
Conditions: LYMP2-024 lymphoblastoid cell viability; series mostly up to 92.2 µM
Records with an inconclusive call do not appear. The source made the active and inactive calls. Calls follow the shape of the dose curve; as a rule, active = well fitted cell-killing curve with a large enough effect; inconclusive = small, poorly fitted or top-dose-only effect; inactive = flat fitted curve, though single readings scatter.
Respond with a class label; see t (active), f (inactive)

Solved entries:
1. O=c1c(-c2ccc(O)cc2)coc2cc(O)ccc12
f
2. CN(C)CCC(c1ccccc1)c1ccccn1 (configuration not stated)
f
3. O=c1[nH]cnc2c1ncn2[C@H]1CC[C@@H](CO)O1
f
4. CCCNC(=O)NS(=O)(=O)c1ccc(Cl)cc1
f
5. CC/C(=C(\c1ccccc1)c1ccc(OCCN(C)C)cc1)c1ccccc1
t
6. CC1=C(/C=C/C(C)=C/C=C/C(C)=C/C(=O)Nc2ccc(O)cc2)C(C)(C)CCC1
t

input: GET /call?item= O=C(O)Cc1cccc2ccccc12 returns the recorded outcome of this test.
output: f
